- tgt: T1, Human IL2Rγ extracellular domain expressed with a C-terminal myc-myc-hexahistidine tag (human)
- T1 construct: also called hIL-2Rg-MMH; hIL-2RG-MMH
- T1 chain: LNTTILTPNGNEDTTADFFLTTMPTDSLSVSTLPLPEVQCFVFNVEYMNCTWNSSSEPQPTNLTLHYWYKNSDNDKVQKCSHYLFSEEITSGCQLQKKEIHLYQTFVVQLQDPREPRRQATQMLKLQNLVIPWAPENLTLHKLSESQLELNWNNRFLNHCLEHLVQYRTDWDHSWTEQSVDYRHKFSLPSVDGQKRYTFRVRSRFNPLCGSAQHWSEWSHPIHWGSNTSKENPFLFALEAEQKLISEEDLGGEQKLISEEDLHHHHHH
- assay name: SPR Biacore 4000, mAb captured by anti-hFc, HBS-ET, 25C
Binary classification by kon, with 200000 M⁻¹ s⁻¹ as an inclusive lower bound for 1; all other cases are -1.

Consider the following illustrative entries.
INSERT INTO assay_data (binder, classification) VALUES
  ('H4H12886P (antibody, human IgG4 S228P, kappa, V domains shown, anti-IL2Rγ monoclonal antibody expressed with human IgG4 Fc) VH: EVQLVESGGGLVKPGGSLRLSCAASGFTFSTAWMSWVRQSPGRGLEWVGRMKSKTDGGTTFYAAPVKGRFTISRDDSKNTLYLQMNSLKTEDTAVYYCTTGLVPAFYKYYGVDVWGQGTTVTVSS VL: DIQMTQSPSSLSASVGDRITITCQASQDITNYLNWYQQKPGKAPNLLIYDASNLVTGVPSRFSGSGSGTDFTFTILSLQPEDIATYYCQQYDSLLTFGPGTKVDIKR', -1),
  ('H4H12900P (antibody, human IgG4 S228P, kappa, V domains shown, anti-IL2Rγ monoclonal antibody expressed with human IgG4 Fc) VH: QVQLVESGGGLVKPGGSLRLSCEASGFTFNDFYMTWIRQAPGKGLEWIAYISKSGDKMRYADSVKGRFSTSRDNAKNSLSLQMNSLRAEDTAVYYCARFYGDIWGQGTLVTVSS VL: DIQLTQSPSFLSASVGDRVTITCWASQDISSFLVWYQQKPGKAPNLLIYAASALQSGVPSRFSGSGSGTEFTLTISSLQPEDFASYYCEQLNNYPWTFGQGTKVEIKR', 1),
  ('H4H12858P (antibody, human IgG4 S228P, kappa, V domains shown, anti-IL2Rγ monoclonal antibody expressed with human IgG4 Fc; also called REGN9433) VH: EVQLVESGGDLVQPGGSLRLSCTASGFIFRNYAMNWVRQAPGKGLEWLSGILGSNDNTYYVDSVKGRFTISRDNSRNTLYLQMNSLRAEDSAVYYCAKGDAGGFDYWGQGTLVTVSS VL: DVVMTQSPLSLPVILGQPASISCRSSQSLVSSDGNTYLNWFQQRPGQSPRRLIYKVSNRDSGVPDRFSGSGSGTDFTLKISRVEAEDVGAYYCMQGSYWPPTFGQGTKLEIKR', 1),
  ('H4H12863P (antibody, human IgG4 S228P, kappa, V domains shown, anti-IL2Rγ monoclonal antibody expressed with human IgG4 Fc) VH: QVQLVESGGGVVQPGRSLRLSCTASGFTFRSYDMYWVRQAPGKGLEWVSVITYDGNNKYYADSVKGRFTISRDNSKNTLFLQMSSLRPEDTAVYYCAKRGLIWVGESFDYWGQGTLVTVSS VL: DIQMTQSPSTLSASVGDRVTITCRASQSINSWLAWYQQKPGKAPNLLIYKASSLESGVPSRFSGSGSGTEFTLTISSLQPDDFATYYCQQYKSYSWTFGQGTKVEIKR', 1);

Next binder, please.
Task item: Is the recorded value of kon equal to or greater than 200000 M⁻¹ s⁻¹ for this binder? H4H13538P (antibody, human IgG4 S228P, kappa, V domains shown, anti-IL2Rγ monoclonal antibody expressed with human IgG4 Fc) VH: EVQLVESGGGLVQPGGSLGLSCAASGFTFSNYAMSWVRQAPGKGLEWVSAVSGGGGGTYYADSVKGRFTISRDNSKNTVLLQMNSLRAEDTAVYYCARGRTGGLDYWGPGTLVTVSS VL: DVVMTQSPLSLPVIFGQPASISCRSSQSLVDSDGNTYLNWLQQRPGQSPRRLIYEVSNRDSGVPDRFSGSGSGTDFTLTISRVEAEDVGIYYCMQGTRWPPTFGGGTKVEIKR
Reply: 1
